Provenance of the data: PubChem BioAssay (NCI)

# System: HCT-15 colon
# assay.remarks: NCI-60 one-dose screen, 48 h
# test.conditions: 10 µM unless noted
About 83,000 compounds went through this panel and 20% of them were active in at least one assay; those are over-represented in the sample as a whole. Calls of active or inactive are those of the source. Rule for the calls: active = growth percent below 10; inactive = the rest.
Outcome field: choose from yes (1) = active, no (0) = inactive

stdin: Query: recorded result category for O=C(Nc1cc(Cl)cc(Cl)c1)Nc1ccc2oc(=O)ccc2c1 in this test
stdout: yes (1)

stdin: Query: recorded result category for Cn1cc2c(c1)-c1c(sc3nc(-c4ccc(NC(=O)Nc5cc(C(C)(C)C)on5)cc4)cn13)CC2 in this test
stdout: no (0)

stdin: Query: recorded result category for CC(=O)Oc1ccc(CCN2C(=O)CSC2=S)cc1 in this test
stdout: no (0)

stdin: Query: recorded result category for COc1cc(/C=C2\SC(=O)NC2=O)ccc1OCC(=O)Nc1ccc(C(=O)/C=C/c2cc3ccccc3nc2Cl)cc1 in this test
stdout: no (0)

stdin: Query: recorded result category for CCCCCCNC(=O)Oc1ccc(/C(=C(/C)c2ccccc2)c2ccc(OCCN(C)C)cc2)cc1 in this test
stdout: yes (1)

stdin: Query: recorded result category for O=C1[C@H]2Cc3c([nH]c4ccccc34)[C@@H](c3c(Cl)cccc3Cl)N2C(=O)CN1C1CCN(Cc2ccccc2)CC1 in this test
stdout: no (0)

stdin: Query: recorded result category for Oc1ccccc1-c1nnc(SCc2ccc(O)c3ncccc23)o1 in this test
stdout: no (0)

stdin: Query: recorded result category for CN(C)C(=O)c1ccccc1-n1cnc2ccccc2c1=O in this test
stdout: no (0)

stdin: Query: recorded result category for Cn1c2ccc(Br)cc2c2c3c(c4c5cc(F)ccc5oc4c21)C(=O)N(O)C3=O in this test
stdout: no (0)

====

# System: SF-268 CNS
# assay.remarks: NCI-60 one-dose screen, 48 h (100 = growth as untreated, 0 = no growth, -100 = all killed)
# test.conditions: 10 µM unless noted
About 83,000 compounds went through this panel and 20% of them were active in at least one assay; those are over-represented in the sample as a whole.
recorded.endpoint: growth (%)
Report only the number, with the unit % understood.

stdin: Any idea what growth was measured for Fc1ccc(-c2cc3nc(C(Cl)Cl)nc(-c4cccs4)n3n2)cc1 ?
stdout: 13.3

stdin: Any idea what growth was measured for COc1cc(/C=N/n2cnc3oc(-c4ccccc4)cc3c2=N)cc(CN2CCOCC2)c1O ?
stdout: 72.4

stdin: Any idea what growth was measured for C#CCOc1ccc(/C=N/Nc2nc(-c3cc(Cl)ccc3Cl)cs2)cc1 ?
stdout: 95.7

stdin: Any idea what growth was measured for CCCC(=O)NC(c1cccnc1)c1ccc2c(C)ccnc2c1O (centres undefined) ?
stdout: 21.9

stdin: Any idea what growth was measured for CNC(=O)c1cc(N2CCc3cc(NC(=O)Nc4ccc(Cl)c(Cl)c4)ccc32)ccn1 ?
stdout: 104

stdin: Any idea what growth was measured for C#C[C@]1(O)CC[C@H]2[C@@H]3CC=C4c5sc(C6CCOCC6)nc5CC[C@]4(C)[C@H]3CC[C@@]21C ?
stdout: 91.2

stdin: Any idea what growth was measured for COc1cc2c3c(n(CCCNC4CCC4)c(=O)c2cc1OC)-c1cc2c(cc1C3=O)OCO2 ?
stdout: 45.6

stdin: Any idea what growth was measured for O=C1c2c(c3c4cc(Br)ccc4[nH]c3c3ccc4ccccc4c23)C(=O)N1CCN1CCCCC1 ?
stdout: 38.4

stdin: Any idea what growth was measured for COc1ccc(-c2nc(SCC(C)C)nc(N/N=C\c3cccc([N+](=O)[O-])c3)c2C#N)cc1 ?
stdout: 43.6

====

# Tested on: NCI-H23 lung
# assay.remarks: NCI-60 one-dose screen, 48 h
# test.conditions: 10 µM unless noted
Compounds without any hit were thinned out: in the full panel of roughly 83,000, 20% have a hit. Activity calls are given as the source filed them. Rule for the calls: active = growth percent below 10; inactive = the rest.
Outcome field: choose from active, inactive

stdin: Query: recorded result category for C#C[C@]1(O)CC[C@H]2[C@@H]3CC=C4c5sc(Nc6ccncc6)nc5CC[C@]4(C)[C@H]3CC[C@@]21C in this test
stdout: active

stdin: Query: recorded result category for O=C(COc1ccc(C2SCC(=O)N2c2ccc(F)cc2)cc1)c1ccccc1 (configuration not stated) in this test
stdout: inactive

stdin: Query: recorded result category for CC1=C2C(=C[C@@](C)(COS(N)(=O)=O)[C@@H]2O)C(=O)[C@](C)(O)C12CC2 in this test
stdout: inactive

stdin: Query: recorded result category for CC1=CC(=O)CC(C)(C)[C@@]1(O)/C=C/C(C)=C\C(=O)O in this test
stdout: active

stdin: Query: recorded result category for C#C[C@]1(O)CC[C@H]2[C@@H]3CC=C4c5sc(Nc6cc(OC)ccc6OC)nc5CC[C@]4(C)[C@H]3CC[C@@]21C in this test
stdout: inactive

stdin: Query: recorded result category for O=C(CSc1ccc(-c2nc3ccccc3[nH]2)cn1)N1CCN(c2ccccc2F)CC1 in this test
stdout: inactive

stdin: Query: recorded result category for CCOC(=O)C1=C(C)Nc2nc3ccccc3n2C1c1ccccc1 (configuration not stated) in this test
stdout: inactive

stdin: Query: recorded result category for C=CCn1c(SCC(=O)Nc2cccc(C(=O)/C=C/c3ccc(Cl)cc3)c2)nc2ccccc2c1=O in this test
stdout: inactive

stdin: Query: recorded result category for CCn1c2ccc(/C=N/OCCCN(C)C)cc2c2cc(/C=N/OCCCN(C)C)ccc21 in this test
stdout: active

stdin: Query: recorded result category for Cc1nn(-c2ccc(Cl)cc2)c(C)c1N=Nc1ccc2oc(=O)ccc2c1 in this test
stdout: inactive

stdin: Query: recorded result category for CC1(C)CC[C@]2(C(=O)O)CC[C@]3(C)C(=CCC4[C@@]5(C)C[C@@H](O)[C@@H]6OC(c7ccccc7O)OC[C@@]6(C)C5CC[C@]43C)C2C1 (some centres not stated) in this test
stdout: inactive

stdin: Query: recorded result category for Cc1ccc(-c2csc(N/N=C/c3nc4ccccc4n3C3CC3)n2)cc1 in this test
stdout: inactive

stdin: Query: recorded result category for Cc1ccc(NC(=O)c2cccc(CN3CCN(C)CC3)c2)cc1Oc1ccc(-c2[nH]nc3ncnc(N)c23)cc1 in this test
stdout: inactive

stdin: Query: recorded result category for COc1ccc2c(c1)oc1c3[nH]c4ccccc4c3c3c(c21)C(=O)N(O)C3=O in this test
stdout: inactive

stdin: Query: recorded result category for COc1ccc(-c2no[n+]([O-])c2Nc2ccccc2Br)cc1 in this test
stdout: inactive

stdin: Query: recorded result category for IP(CCCCCCCCCCSc1n(Cc2ccc3ccccc3c2)c(-c2ccccc2)c(-c2ccccc2)[n+]1Cc1ccc2ccccc2c1)(c1ccccc1)(c1ccccc1)c1ccccc1 in this test
stdout: active

stdin: Query: recorded result category for CCOC(=O)c1c(NCC(=O)Nc2cccc([N+](=O)[O-])c2)sc2c1CCCC2 in this test
stdout: active

stdin: Query: recorded result category for COc1ccc(-c2cc(-c3ccc(Cl)cc3)nc3nc(N)nn23)cc1 in this test
stdout: inactive

stdin: Query: recorded result category for CCN1C(=O)N(CC)C2SC(N/N=C/C=C/c3ccccc3OC)=NC21 (configuration not stated) in this test
stdout: inactive

stdin: Query: recorded result category for CC(=O)NC(C)(C)C(=O)N1CCC[C@H]1C(=O)NC(C)(C)C(=O)N[C@@H](C)C(=O)NC(C)(C)C(=O)N[C@@H](C)C(=O)N[C@@H](CCC(N)=O)C(=O)NC(C)(C)C(=O)N[C@H](C(=O)NC(C)(C)C(=O)NCC(=O)N[C@@H](CC(C)C)C(=O)NC(C)(C)C(=O)N1CCC[C@H]1C(=O)N[C@H](C(=O)NC(C)(C)C(=O)NC(C)(C)C(=O)N[C@@H](CCC(N)=O)C(=O)N[C@@H](CCC(N)=O)C(=O)N[C@H](CO)Cc1ccccc1)C(C)C)C(C)C in this test
stdout: inactive

stdin: Query: recorded result category for Cc1ccc(S(=O)(=O)N/N=C/c2cn(-c3ccc(F)cc3)nc2-c2ccc(S(C)(=O)=O)cc2)cc1 in this test
stdout: inactive

stdin: Query: recorded result category for COc1cc(-c2nc(SCc3ccc(C)cc3)[nH]c(=O)c2C#N)ccc1OCc1ccccc1 in this test
stdout: inactive

stdin: Query: recorded result category for CCOC(=O)c1c(Nc2ccccc2)nn2c(-c3ccc(Br)cc3)ccnc12 in this test
stdout: inactive

stdin: Query: recorded result category for CC[C@]12C=CCN3CC[C@]4(C(=C(C(=O)OC)C1)Nc1cc5c(cc14)[C@@H]1[C@H](O5)[C@@H](O)[C@@]4(CC)CC(C(=O)OC)=C5Nc6cc(OC)ccc6[C@@]56CCN1[C@@H]46)[C@@H]32 in this test
stdout: active

stdin: Query: recorded result category for COc1cc(O)c2c(c1)/C=C/C[C@H](O)[C@H](O)C(=O)/C=C\C[C@H](C)OC2=O in this test
stdout: active

stdin: Query: recorded result category for Cc1cc(NS(=O)(=O)c2ccc(-c3cnc(C4CC4)o3)cc2)ccc1I in this test
stdout: inactive

stdin: Query: recorded result category for C#C[C@]1(O)CC[C@H]2[C@@H]3CC=C4c5sc(C6CC6)nc5CC[C@]4(C)[C@H]3CC[C@@]21C in this test
stdout: inactive

stdin: Query: recorded result category for CCN(CC)c1ccc2cc(C(=O)NCCOCCOCCOCCn3cc(CCC(=O)Nc4ccc(C(=O)c5ccc(NC(=O)OC(C)(C)C)cc5)cc4)nn3)c(=O)oc2c1 in this test
stdout: inactive

stdin: Query: recorded result category for O=S(=O)(Nc1cc(Cl)cc(Cl)c1)c1ccc(-c2cnc(C3CC3)o2)cc1 in this test
stdout: inactive

stdin: Query: recorded result category for C(=C(\C1=NCCN1)n1cnc2ccccc21)/c1cccc2ccccc12 in this test
stdout: inactive

stdin: Query: recorded result category for CCN(CC)Cc1c(-c2cccc(OC(F)(F)F)c2)[nH]c2ccc(N3CCCC3)cc2c1=O in this test
stdout: inactive

stdin: Query: recorded result category for Cn1cc(-c2nnc(N)nc2-c2cn(C)c3ccc(F)cc23)c2cc(F)ccc21 in this test
stdout: inactive
